molecular target: Calcium-dependent protein kinase 4 (Plasmodium falciparum (isolate 3D7)); assay: PfCDPK4 kinase inhibitors, biochemical, TCAMS library (AID 1159588); conditions: recombinant PfCDPK4, Kinase-Glo ATP depletion luminescence
Measured potencies and affinities stand elsewhere. Activity calls are given as the source filed them. No cut-off is given here; in the data, nearly all actives have IC50 up to about 0.91 µM.

{"compound": "COc1c(C2CCN(CCCCNC(=O)C=Cc3ccccc3C(F)(F)F)CC2)ccc2c1CCCC2", "target.desc": "Calcium-dependent protein kinase 4 (Plasmodium falciparum (isolate 3D7))", "outcome": "inactive"}
{"compound": "O=C(NCCCCN1CCC(c2ccc3c(c2OCCOCCO)CCCC3)CC1)c1ccc(-c2ccc(C(F)(F)F)cc2)cc1", "target.desc": "Calcium-dependent protein kinase 4 (Plasmodium falciparum (isolate 3D7))", "outcome": "inactive"}
{"compound": "CCC(C)NC(=O)Nc1ccc(-c2cccc(-c3nc4c(C)cccc4[nH]3)c2)cc1 (stereo not given)", "target.desc": "Calcium-dependent protein kinase 4 (Plasmodium falciparum (isolate 3D7))", "outcome": "inactive"}
{"compound": "COc1cc2c(cc1OC)C(C(=O)Nc1cc(OC)c(OC)c(OC)c1)C(c1ccc(SC)cc1)N(C)C2=O (stereo not given)", "target.desc": "Calcium-dependent protein kinase 4 (Plasmodium falciparum (isolate 3D7))", "outcome": "inactive"}
{"compound": "Cc1cccc(-c2c(C)nc(N)nc2N)c1", "target.desc": "Calcium-dependent protein kinase 4 (Plasmodium falciparum (isolate 3D7))", "outcome": "inactive"}
